This collection of values is drawn from patent US6485941B1.

Biological target: carboxyltransferase component of E. coli acetyl-CoA carboxylase (Escherichia coli, UniProt P0A9Q5+P0ABD5)
Construct: G. Waldrop, LSU)
Sequence (P0ABD5 1-319): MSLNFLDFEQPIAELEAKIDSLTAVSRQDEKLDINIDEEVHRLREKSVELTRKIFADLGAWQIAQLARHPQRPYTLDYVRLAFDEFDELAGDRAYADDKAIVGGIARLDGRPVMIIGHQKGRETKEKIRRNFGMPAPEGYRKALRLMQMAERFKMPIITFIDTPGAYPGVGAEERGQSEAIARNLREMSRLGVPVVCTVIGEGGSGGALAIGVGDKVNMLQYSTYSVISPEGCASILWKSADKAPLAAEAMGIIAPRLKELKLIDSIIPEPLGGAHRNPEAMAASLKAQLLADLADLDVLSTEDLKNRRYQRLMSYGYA
Sequence (P0A9Q5 1-304): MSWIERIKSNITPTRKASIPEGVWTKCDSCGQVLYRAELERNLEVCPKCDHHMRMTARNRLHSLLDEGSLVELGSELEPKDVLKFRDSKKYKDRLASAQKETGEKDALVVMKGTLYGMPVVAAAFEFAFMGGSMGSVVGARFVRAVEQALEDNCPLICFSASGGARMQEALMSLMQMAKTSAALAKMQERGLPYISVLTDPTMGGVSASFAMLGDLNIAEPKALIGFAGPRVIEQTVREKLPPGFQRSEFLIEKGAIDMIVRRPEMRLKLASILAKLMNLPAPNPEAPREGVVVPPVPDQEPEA
Experiment: Carboxyltransferase inhibition, assayed in the reverse direction with coupled spectrophotometric detection
pKi: −log10 of the molar value.
QUANTITY_NAME: pKi

- CC(C)(COP(=O)(O)OP(=O)(O)OCC1OC(n2cnc3c(N)ncnc32)C(O)C1OP(=O)(O)O)C(O)C(=O)NCCC(=O)NCCSCC(=O)N1C(=O)NC2C(CCCCC(=O)OCc3ccccc3)SCC21 (stereo not shown) [Compound 1]: 4.64
